- System: SNB-75
- protocol-notes: NCI tumour cell line growth inhibition, 48 h
Calls of active or inactive are those of the source. Cut-off read from the data, not from the text of the source: active = GI50 up to about 1.1 µM and inactive = higher.
Outcome codes: active, inactive

| compound | class |
| --- | --- |
| CCCC1CC(=O)NC(=O)C1C(=O)OC(C)(C)C (stereo not drawn) | inactive |
| CC1CN=C(N(C(=O)Nc2ccc(Cl)c(Cl)c2)c2ccccc2)S1 (stereo not drawn) | inactive |
| COc1ccc(C(c2cc(OC)c(OC)c(OC)c2)N2C(=O)CCC2C(=O)O)cc1 (stereo not drawn) | inactive |
| O=C(Nn1c(-c2ccccc2)nc2ccccc2c1=O)c1ccccc1O | inactive |
| CN(C)c1ccc(/C=C2\Cc3ccccc3C2=O)cc1Br | inactive |
| C1COCCN1.S=C(S)N1CCOCC1 | inactive |
| CC1C=CC(=O)C(n2cc(F)c(=O)[nH]c2=O)O1 (stereo not drawn) | inactive |
| COC1=C(NC(C)=O)C(=O)c2nc3n(c2C1=O)CCC3 | inactive |
| CC(C(=O)C(C)O[Si](c1ccccc1)(c1ccccc1)C(C)(C)C)=P(c1ccccc1)(c1ccccc1)c1ccccc1 (stereo not drawn) | inactive |
| N#C/C(=C1\OC(=N)C(c2ccc(Cl)cc2)=C1O)c1ccc(Cl)cc1 | inactive |
| c1ccc(C2C(=P(c3ccccc3)(c3ccccc3)c3ccccc3)P=PC2[P+](c2ccccc2)(c2ccccc2)c2ccccc2)cc1.c1ccc([B-](c2ccccc2)(c2ccccc2)c2ccccc2)cc1 (stereo not drawn) | active |
| CC1CC2=Nc3ccccc3NC(c3ccccc3)C2=C(O)O1 (stereo not drawn) | inactive |
| CC12CC(c3ccccc3O1)C(C(=O)Nc1nccs1)C(=O)N2 (stereo not drawn) | inactive |
